FYI, the data here is from the supplement of paper PMC10567573.

Entries annotated with measured protein stability index
B1: FBF1 (parent)
chain: LQRASILDMRRDHEEQLQRLKLLK

- Variants of: B1
- test-description: protein stability index of a GFP-peptide fusion (GPS, HEK-293T) (PSI 1-6); higher = more stable;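 also: lentivirally expressed fusions sorted by FACS into six bins by GFP to DsRed ratio, PSI derived from sequencing read proportions per bin multiplied by bin number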
- condition-info: c terminus: a fixed tail appended

mutant-code: A4E
protein stability index: 4.02
--
mutant-code: I6F
protein stability index: 3.51
--
mutant-code: R19W
protein stability index: 2.25
--
mutant-code: R10F
protein stability index: 2.36
--
mutant-code: R19C
protein stability index: 2.65
